system: T1, mouse GLP-1 receptor (mGLP-1r) (Mus musculus, UniProt O35659)
T1 construct: expressed in transfected cells; host or cells: HEK293s or CHO cells
T1 sequence (O35659 22-463): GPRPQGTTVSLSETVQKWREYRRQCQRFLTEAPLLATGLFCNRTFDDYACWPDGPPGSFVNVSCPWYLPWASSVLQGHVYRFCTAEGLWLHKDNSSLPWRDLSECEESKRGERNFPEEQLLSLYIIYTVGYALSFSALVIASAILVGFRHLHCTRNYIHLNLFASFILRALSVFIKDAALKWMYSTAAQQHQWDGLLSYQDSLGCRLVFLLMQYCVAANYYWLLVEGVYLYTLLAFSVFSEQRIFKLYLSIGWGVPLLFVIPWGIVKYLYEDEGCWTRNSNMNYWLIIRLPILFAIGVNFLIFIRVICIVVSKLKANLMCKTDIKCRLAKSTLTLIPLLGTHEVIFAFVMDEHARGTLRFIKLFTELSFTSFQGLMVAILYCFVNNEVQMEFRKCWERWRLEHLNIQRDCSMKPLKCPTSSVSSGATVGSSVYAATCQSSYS
measurement.description: BSA-cAMP assay, cells expressing mouse GLP-1 receptor
Type: cell-based
condition: BSA-cAMP assay; read-out: cAMP activity mGLP1r (EC50)
measurement.kind: EC50 (nM)

Worked cases, EC50 given:
Name the recorded EC50 for IP250 (protein, /note=“Description of Artificial Sequence Synthetic Peptide-linker-hinge polypeptide”) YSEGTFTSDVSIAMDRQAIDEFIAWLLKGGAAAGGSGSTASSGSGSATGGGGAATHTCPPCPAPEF .
22

Would you mind doing IP246: Fc fusion, IgG1-TM, SEQ ID NO:116; agonist peptide YSEGTFTSDYSKLLEGQAAKLFIEWLVKGP (protein, also: Fc fusion, IgG1-TM, agonist peptide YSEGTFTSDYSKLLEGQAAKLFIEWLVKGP) YSEGTFTSDYSKLLEGQAAKLFIEWLVKGPAAAGGSGSTASSGSGSATGGGGAATHTCPPCPAPEF as well?
3.2

Lookup IP247: Fc fusion, IgG1-TM, SEQ ID NO:117; agonist peptide YSEGTFTSDYSKLLEKIHQQLFIEWLVKGP (protein, also: Fc fusion, IgG1-TM, agonist peptide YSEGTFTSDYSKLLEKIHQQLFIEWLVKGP) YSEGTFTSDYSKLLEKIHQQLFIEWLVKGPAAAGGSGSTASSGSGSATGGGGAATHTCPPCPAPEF
280

Continue with IP226 (protein, /note=“Description of Artificial Sequence Synthetic Peptide-linker-hinge polypeptide”) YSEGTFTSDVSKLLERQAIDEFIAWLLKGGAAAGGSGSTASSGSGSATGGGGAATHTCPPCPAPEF
1

I = IP170 (protein, /note=“Description of Artificial Sequence Synthetic Peptide-linker-hinge polypeptide”) YSEGTFTSDVSSYMERQAIDEFIAWLLKGGAAAGGSGSTASSGSGSATGGGGAATHTCPPCPAPEF
II = IP223 (protein, /note=“Description of Artificial Sequence Synthetic Peptide-linker-hinge polypeptide”) YSEGTFTSDVSSYMEEEAIDEFIAWLLKGGAAAGGSGSTASSGSGSATGGGGAATHTCPPCPAPEF
III = IP015 (protein, /note=“Description of Artificial Sequence Synthetic Peptide-linker-hinge polypeptide”) HGEGTFTSDVSSYLEGQAAKEFIAWLVKGAAAGGSGSTASSGSGSATGGGGAATHTCPPCPAPEF
Hey, quick one: sort these by EC50, low to high? A ranking is expressed here by listing the labels in the requested order.
III, I, II
(III: 0.13 nM, I: 0.85 nM, II: 80 nM)
